Items are presented alongside their recorded speed of sound.
settings: 303.15 K; 101.33 kPa; Liquid; Sing-around technique in a fixed-path interferometer
Outcome Measure: speed of sound (m/s)

• CCCCCC[n+]1cc(C)cc(C)c1CCCCC.O=S(=O)([N-]S(=O)(=O)C(F)(F)F)C(F)(F)F = 1277
• CCCCCc1c(C)cc(C)c[n+]1CC.O=S(=O)([N-]S(=O)(=O)C(F)(F)F)C(F)(F)F = 1296
• CCCCCc1c(C)cc(C)c[n+]1CCCC.O=S(=O)([N-]S(=O)(=O)C(F)(F)F)C(F)(F)F = 1279
• CCCCCC[n+]1cc(C)cc(C)c1C.O=S(=O)([N-]S(=O)(=O)C(F)(F)F)C(F)(F)F = 1276

----------
Items are presented alongside their recorded mass density.
conditions: 308.15 K; 101.33 kPa; Liquid; Vibrating tube method
± gives the expanded uncertainty stated by the source.
Outcome Measure: mass density

* CCCCCC[n+]1cc(C)cc(C)c1C.O=S(=O)([N-]S(=O)(=O)C(F)(F)F)C(F)(F)F | 1327.48 ± 0.51 kg/m3
* CCCCCC[n+]1cc(C)cc(C)c1CCCCC.O=S(=O)([N-]S(=O)(=O)C(F)(F)F)C(F)(F)F | 1245.09 ± 0.44 kg/m3
* CCCCCc1c(C)cc(C)c[n+]1CCCC.O=S(=O)([N-]S(=O)(=O)C(F)(F)F)C(F)(F)F | 1279.63 ± 0.47 kg/m3
* CCCCCc1c(C)cc(C)c[n+]1CC.O=S(=O)([N-]S(=O)(=O)C(F)(F)F)C(F)(F)F | 1315.21 ± 0.5 kg/m3

----------
conditions: 323.15 K; 101.33 kPa; Liquid; Sing-around technique in a fixed-path interferometer
Items are presented alongside their recorded speed of sound.
Outcome Measure: speed of sound (m/s)

• CCCCCC[n+]1cc(C)cc(C)c1C.O=S(=O)([N-]S(=O)(=O)C(F)(F)F)C(F)(F)F = 1229
• CCCCCc1c(C)cc(C)c[n+]1CCCC.O=S(=O)([N-]S(=O)(=O)C(F)(F)F)C(F)(F)F = 1228
• CCCCCc1c(C)cc(C)c[n+]1CC.O=S(=O)([N-]S(=O)(=O)C(F)(F)F)C(F)(F)F = 1245
• CCCCCC[n+]1cc(C)cc(C)c1CCCCC.O=S(=O)([N-]S(=O)(=O)C(F)(F)F)C(F)(F)F = 1225

----------
Items are presented alongside their recorded speed of sound.
conditions: 338.15 K; 101.33 kPa; Liquid; Sing-around technique in a fixed-path interferometer
Outcome Measure: speed of sound (m/s)

* CCCCCc1c(C)cc(C)c[n+]1CC.O=S(=O)([N-]S(=O)(=O)C(F)(F)F)C(F)(F)F | 1209
* CCCCCC[n+]1cc(C)cc(C)c1CCCCC.O=S(=O)([N-]S(=O)(=O)C(F)(F)F)C(F)(F)F | 1188
* CCCCCc1c(C)cc(C)c[n+]1CCCC.O=S(=O)([N-]S(=O)(=O)C(F)(F)F)C(F)(F)F | 1191
* CCCCCC[n+]1cc(C)cc(C)c1C.O=S(=O)([N-]S(=O)(=O)C(F)(F)F)C(F)(F)F | 1195

----------
conditions: 318.15 K; 101.33 kPa; Liquid; Capillary tube (Ostwald / Ubbelohde) method
Outcome Measure: viscosity (mPa·s)

- CCCCCc1c(C)cc(C)c[n+]1CCCC.O=S(=O)([N-]S(=O)(=O)C(F)(F)F)C(F)(F)F: 80.8
- CCCCCc1c(C)cc(C)c[n+]1CC.O=S(=O)([N-]S(=O)(=O)C(F)(F)F)C(F)(F)F: 79.9
- CCCCCC[n+]1cc(C)cc(C)c1C.O=S(=O)([N-]S(=O)(=O)C(F)(F)F)C(F)(F)F: 60.2
- CCCCCC[n+]1cc(C)cc(C)c1CCCCC.O=S(=O)([N-]S(=O)(=O)C(F)(F)F)C(F)(F)F: 88.5
